Source of measurements: patent US20020037885A1

Overview of reported melting point across a group of compounds:
Value kind: melting point

| Compound | Data value |
| --- | --- |
| C1=CCC(c2ccccc2-c2noc3ccccc23)NC1 (stereo not drawn) [Example 36(11)] | 242 to 268 °C |
| C#CCC(N)c1ccccc1-c1noc2ccccc12.O=C(O)/C=C/C(=O)O (stereo not drawn) [Example 12(5)] | 165 to 170 °C |
| C=CCC(N)c1ccccc1-c1noc2ccncc12.O=C(O)/C=C\C(=O)O (stereo not drawn) [16 (7)] | 151 to 153 °C |
| C=CCC(N)c1ccccc1Cc1ccccc1.O=C(O)/C=C/C(=O)O (stereo not drawn) | 181 to 183 °C |
| C=CCC(N)C1(c2noc3ccccc23)CC=CS1.O=C(O)/C=C/C(=O)O (stereo not drawn) | 173 to 178 °C |
| C=CCC(N)c1ccccc1-c1cc(F)ccc1C.O=C(O)/C=C/C(=O)O (stereo not drawn) | 190 to 192 °C |
| C=CCC(N)c1ccccc1-c1noc2cnccc12.O=C(O)/C=C/C(=O)O (stereo not drawn) [16 (6)] | 183 to 189 °C |
| C=CCC(N)c1ccccc1-c1coc2ccccc12.Cl (stereo not drawn) | 160 to 165 °C |
| C=CCC(N)c1ccccc1-c1noc2cc(Cl)ccc12.Cl (stereo not drawn) [11(2)] | 174 to 185 °C |
| C=C(C)CC(N)c1ccccc1-c1noc2ccccc12.Cl (stereo not drawn) | 170 to 200 °C |
| C=CC[C@H](N)c1ccc(F)cc1-c1noc2ccccc12.O=C(O)/C=C/C(=O)O | 97 to 108 °C |
| CCCCC(N)c1ccccc1-c1noc2cc(Cl)ccc12.Cl (stereo not drawn) | 209 to 214 °C |
| C=CCC(N)c1ccccc1-c1cccc(C(F)(F)F)c1.O=C(O)/C=C/C(=O)O (stereo not drawn) [15 (34)] | 194 to 196 °C |
| C=CCC(N)c1ccccc1Cc1cccc(OC)c1.O=C(O)/C=C/C(=O)O (stereo not drawn) | 163 to 165 °C |
| C=CCC(N)c1oc2ccccc2c1-c1noc2ccccc12.O=C(O)/C=C/C(=O)O (stereo not drawn) | 210 to 216 °C |
| C=CCC(N)c1cc(Cl)ccc1-c1noc2ccccc12.O=C(O)/C=C/C(=O)O (stereo not drawn) | 174 to 177 °C |
| C=CCC(N)c1ccccc1-c1cc(Cl)ccc1C.O=C(O)/C=C/C(=O)O (stereo not drawn) | 179 to 184 °C |
| C=CCC(N)c1ccccc1-c1ccon1.O=C(O)/C=C/C(=O)O (stereo not drawn) | 150 to 175 °C |
| C=CCC(N)c1ccccc1-c1cc2ccccc2s1.Cl (stereo not drawn) | 106 to 108 °C |
| C=CCC(N)C1(c2noc3ccccc23)CC=CO1.O=C(O)/C=C/C(=O)O (stereo not drawn) | 158 to 165 °C |
| C=CCC(N)c1ccccc1-c1ccccc1Cl.O=C(O)/C=C/C(=O)O (stereo not drawn) | 189 to 191 °C |
